Values from the supplement of paper PMC10065799

molecular target: c-Src SH2; test: SH2 binding enrichment of the phosphorylated peptide, bacterial display (enrichment ratio); higher = better substrate or ligand; peptides without Tyr show the background;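 further: peptide library displayed on the E. coli surface as eCPX fusions, selected cells deep-sequenced, score is each peptide's frequency after selection divided by its frequency in the input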
Binary classification by SH2 binding enrichment, with 0.6 as an inclusive lower bound for 1; all other cases are 0.

Take a look at these entries with their results.
Q: Say whether RDMMDYMLQGV [CYP21A2_Y259] shows SH2 binding enrichment of 0.6 or more.
A: 0

Q: Evaluate GGEEFYVHFVG [KAT8_Y90_R86G_YF] : SH2 binding enrichment at minimum 0.6?
A: 0

Q: Does SH2 binding enrichment meet or surpass 0.6 for PLDGGYFTLQI [TP53_Y327_E326G] ?
A: 0

Q: Is reported SH2 binding enrichment greater than or equal to 0.6 here: KKRSVYIKVLF [CC2D2A_Y683_L684I]
A: 0

Q: Form field: SH2 binding enrichment at least 0.6? Entry: WFPANYVKLLS [ITSN1_Y1132]
A: 1

***
Q: Item ALRASYTPSPA [ESS2_Y418] with SH2 binding enrichment of 0.6 or above?
A: 0

Q: Tell me whether SH2 binding enrichment is at least 0.6 here: HQKKPYCHTHN [NRAP_Y53_A56T]
A: 1

Q: Given AVEDQYFCVDC [FHL1_Y207_YF] , state whether its SH2 binding enrichment is at least 0.6.
A: 1

Q: Check the entry YSGDYYRIQGR [DDR2_Y741] : does SH2 binding enrichment equal or exceed 0.6?
A: 0

Q: Could you verify whether the entry ERRLIYASDPK [VPS13D_Y864_T865A] shows SH2 binding enrichment of no less than 0.6?
A: 1

Q: SH2 binding enrichment >= 0.6 for ETGEPYRLSPE [EIF4G1_Y311] ?
A: 0

Q: Can RQSHNYLGGFA [SYK_Y47_R45H] be said to have SH2 binding enrichment at or above 0.6?
A: 0

Q: Given the entry AKLKDYFIFNK [CCDC42_Y149_YF] , answer whether its SH2 binding enrichment meets or surpasses 0.6.
A: 1

Q: Hello, I need to know if VEDHFYEGGIG [TKT_Y564_YF] has measured SH2 binding enrichment not below 0.6. Thanks!
A: 1

Q: Evaluate QPDFLYDHIQP [TRRAP_Y862] : SH2 binding enrichment at minimum 0.6?
A: 0

Q: Answer whether SH2 binding enrichment of PLKFLYPNIDR [STAT1_Y668_K673R_YF] is greater than or equal to 0.6.
A: 1

Q: Reported SH2 binding enrichment at or above 0.6? ANAYIYDVQLP [L1CAM_Y420_V421D]
A: 1

Q: Given the entry FLRKEYGGVNV [CBR3_Y81_L84V] , answer whether its SH2 binding enrichment meets or surpasses 0.6.
A: 0

Q: Determine whether measured SH2 binding enrichment meets or exceeds 0.6 for VFSATYHPDHW [EFCAB12_Y544_P541S_YF]
A: 0

Q: Check if SH2 binding enrichment >= 0.6 (inclusive). Item: CEHRGCLFLAI [TEK_Y897_Y897C_YF]
A: 1
